Source of measurements: patent US20120053053A1

tested on: Setaria faberi (SETFA); assay: Post-emergence biological efficacy (percentage damage); format: in vivo; conditions: Setaria faberi, 312 h, dose 1,000 g/ha, evaluated after 13 days, 100=total damage, 0=no damage
API: label(entry) gives rule met if the entry's pest or weed control at 1000 g/ha is strictly smaller than 40%; on equality or larger values it gives rule not met.

C=Cc1c(N)nc(-c2ccc(F)c(C)c2)nc1C(=O)OC	rule not met
C=Cc1c(N)nc(-c2ccc(Cl)c(N(C)C)c2F)nc1C(=O)OC	rule met
COC(=O)c1nc(C2CC2)nc(N(C)C)c1C	rule not met
C=Cc1c(C(=O)OC)nc(C2CC2)nc1[S+](C)[O-] (stereo not drawn)	rule met
C=Cc1c(N)nc(C2CC2)nc1C(=O)OC	rule not met
C=Cc1c(N)nc(-c2ccc(C)cc2)nc1C(=O)OC	rule not met

Below: the item to evaluate.
Query :: Hi there! Is pest or weed control at 1000 g/ha for `C/C=C/c1c(N)nc(-c2ccc(C(F)(F)F)cc2)nc1C(=O)OC` below 40%, do you know?
Result :: rule met
